- MEASUREMENT TARGET: Carbonic anhydrase 2 (Homo sapiens)
- TEST PROTOCOL: CAII small-molecule binders, profiling panel, biochemical, small-molecule microarray, Alexa647-labelled CAII (AID 1122)
- REPORTED CONDITIONS: CAII-A647 binding fluorescence, higher = more signal
Reported composite z-score values are given for each entry in this list.
Number only, no unit.

Worked set:
{"COMPOUND": "CCOC(=O)NN=C1C[C@@H](O)[C@@H](O)[C@@H]2[C@@H]3C(=O)N(C4CCCCC4)C(=O)[C@@H]3CC[C@@H]12", "READOUT LABEL": "composite z-score", "VALUE": 0.0286}
{"COMPOUND": "COC(=O)[C@H](C)NC(=O)CCC1CC(OC(=O)NCCc2ccc(F)cc2)CC2(CCCC(COC(=O)NCC(c3ccccc3)c3ccccc3)O2)O1 (some centres undefined)", "READOUT LABEL": "composite z-score", "VALUE": 0.343}
{"COMPOUND": "CC(C)=CCCC(C)=CCON=C1[C@H]2CCn3c(=O)n(C)c(=O)n3[C@H]2[C@H](O)[C@@H]2O[C@H]12", "READOUT LABEL": "composite z-score", "VALUE": 0.295}
{"COMPOUND": "C=CCOC(=O)[C@H]1[C@@H]2C(=O)O[C@@H](c3ccccc3)[C@@H](c3ccccc3)N2[C@@H](c2ccc(OCCOC(=O)[C@H]3C[C@H]4C(=O)N5CCC[C@H]5C(=O)N4[C@H]3c3cccc(OCCO)c3)cc2)[C@]12C(=O)Nc1ccc(I)cc12", "READOUT LABEL": "composite z-score", "VALUE": 0.879}
{"COMPOUND": "CC(C)C[C@@H]1NC(=O)[C@H]2C[C@@H](C(=O)O)[C@@H](c3ccc(O)cc3)N2C1=O", "READOUT LABEL": "composite z-score", "VALUE": 0.419}
{"COMPOUND": "CCOC(=O)C1=CCC(c2cc3ccccc3[nH]2)NC1 (centres undefined)", "READOUT LABEL": "composite z-score", "VALUE": 0.63}
{"COMPOUND": "CCCNC(=O)OC[C@H]1O[C@H](CCON=C2[C@H]3CCn4c(=O)n(-c5ccccc5)c(=O)n4[C@H]3[C@H](O)[C@@H]3O[C@H]23)C=C[C@@H]1Oc1ccc(OC)cc1", "READOUT LABEL": "composite z-score", "VALUE": 0.167}
{"COMPOUND": "COc1ccc([Si](C)(C)[C@H]2[C@H](CCO)O[C@@]3(C(=O)N(Cc4cccc(NC(=O)[C@H](C)O)c4)c4ccccc43)[C@@H]2C)cc1", "READOUT LABEL": "composite z-score", "VALUE": 0.395}
{"COMPOUND": "COc1ccc(O[C@@H]2[C@H](O)CO[C@H]2C=CC#Cc2ccccc2)cc1", "READOUT LABEL": "composite z-score", "VALUE": 0.177}
{"COMPOUND": "CC(=O)OC[C@H]1O[C@H](CCON=C(C)CCN2CCc3nc(-c4ccccc4)c(-c4ccccc4)cc3C2)C=C[C@@H]1OC(C)=O", "READOUT LABEL": "composite z-score", "VALUE": 0.181}

Q: Bench note: what composite z-score did C[C@@H]1CC[C@H]2C(=O)O[C@H](COc3ccc(C(C)(C)C)cc3)CN2[C@H]1c1ccc(Br)cc1 show?
A: -0.113

Q: Reported composite z-score, compound COCCCNC(=O)[C@@]1(Sc2ccc(C)cc2)CC(=O)N(Cc2ccccc2)[C@@H]1c1ccc(CO)cc1I : ____
A: 0.688

Q: Please look up its composite z-score: C=CCOC(=O)[C@H]1[C@@H]2C(=O)O[C@@H](c3ccccc3)[C@@H](c3ccccc3)N2[C@@H](c2ccc(OCCOC(=O)[C@H]3C[C@H]4C(=O)N[C@@H](Cc5ccccc5)C(=O)N4[C@H]3c3ccc(O)cc3)cc2)[C@]12C(=O)Nc1ccccc12
A: 0.553

Q: Need composite z-score of CCc1cc2c(nc1CC)CCN(CCC(C)=NOC[C@@H](O)COCc1ccco1)C2 , thanks.
A: 0.193

Values from PubChem BioAssay
